# experimental_details: ATG_Oct_MLP_CIS: Attagene CIS-FACTORIAL HepG2 Assay for human Octamer-Binding Transcription Factor (Oct) (AID 2282993)
# test_parameters: HepG2 Attagene cis-factorial Oct reporter, mRNA; actives raise or lower the signal
Activity calls are given as the source filed them. Rule for the calls: active = hit-call score of the fitted dose curve at least 0.9, where 1 is the maximum; inactive = score below 0.9.
Reply using exactly one outcome from active, inactive

Request: What is the recorded call for this compound in the test? CCCC(O)C(CC)CO (centres undefined)
Result: inactive

Request: What is the recorded call for this compound in the test? C[N+](C)(C)CCO
Result: inactive

Request: What is the recorded call for this compound in the test? CCCCC/C=C\C=C\C(=O)OCC
Result: inactive

Request: What is the recorded call for this compound in the test? CCCCCCOc1ccc(O)cc1
Result: active

Request: What is the recorded call for this compound in the test? COC(=O)C(C)Oc1ccc(Oc2ncc(C(F)(F)F)cc2Cl)cc1 (centres undefined)
Result: inactive

Request: What is the recorded call for this compound in the test? CC/C=C\CCCCO
Result: inactive

Request: What is the recorded call for this compound in the test? CCC(C)(C)C1CCC(OC)CC1 (centres undefined)
Result: inactive

Request: What is the recorded call for this compound in the test? CC(=O)CC(C)(C)C1CCCCC1
Result: inactive

Request: What is the recorded call for this compound in the test? CCCCCC(=O)O[C@]1(C(C)=O)CC[C@H]2[C@@H]3CCC4=CC(=O)CC[C@]4(C)[C@H]3CC[C@@]21C
Result: inactive

Request: What is the recorded call for this compound in the test? CC(C)=CC(=O)O
Result: inactive

Request: What is the recorded call for this compound in the test? Cc1cc(O)c(C)c(C)c1O
Result: inactive

Request: What is the recorded call for this compound in the test? CCCCOCC(C)OCC(C)O (centres undefined)
Result: inactive

Request: What is the recorded call for this compound in the test? NC(=O)NC(N)=O
Result: inactive

Request: What is the recorded call for this compound in the test? O=C(C=Cc1ccccc1)OCCCc1ccccc1
Result: inactive

Request: What is the recorded call for this compound in the test? O=C(O)c1ccc(C(=O)O)c(C(=O)O)c1
Result: inactive

Request: What is the recorded call for this compound in the test? CCc1cccc(O)c1
Result: inactive

Request: What is the recorded call for this compound in the test? CN(C)C
Result: inactive

Request: What is the recorded call for this compound in the test? CC1=C(C=O)C(C)(C)CCC1
Result: inactive

Request: What is the recorded call for this compound in the test? CCCCC(CC)COCCO (centres undefined)
Result: inactive

Request: What is the recorded call for this compound in the test? CCCCCCCCCCCCS
Result: inactive

Request: What is the recorded call for this compound in the test? N#CCCNCCC#N
Result: inactive

Request: What is the recorded call for this compound in the test? CCCCCCC(O)CCOC(C)=O (centres undefined)
Result: inactive

Request: What is the recorded call for this compound in the test? Cc1cccc(C)c1
Result: inactive

Request: What is the recorded call for this compound in the test? COc1ccccc1NC(=O)CC(C)=O
Result: inactive

Request: What is the recorded call for this compound in the test? CCCCCc1cccc(=O)o1
Result: inactive

Request: What is the recorded call for this compound in the test? CN1CCc2cccc3c2[C@H]1Cc1ccc(O)c(O)c1-3
Result: inactive

Request: What is the recorded call for this compound in the test? CCCCCC#CC(=O)OC
Result: inactive

Request: What is the recorded call for this compound in the test? CC(O)COCC(C)O (centres undefined)
Result: inactive

Request: What is the recorded call for this compound in the test? CN(C)c1ccc(C=O)cc1
Result: inactive

Request: What is the recorded call for this compound in the test? CC1=CC(C)C(C=O)C(C)C1 (centres undefined) (tested in a mixture with another compound)
Result: inactive

Request: What is the recorded call for this compound in the test? CCCCCCCCCCOC(=O)c1ccccc1C(=O)OCCCCCCCC
Result: inactive

Request: What is the recorded call for this compound in the test? Cc1ccccc1S
Result: active

Request: What is the recorded call for this compound in the test? c1ccc2scnc2c1
Result: inactive

Request: What is the recorded call for this compound in the test? CCCCOC(=O)C(C)OC(=O)CCC (centres undefined)
Result: inactive

Request: What is the recorded call for this compound in the test? CCCCCCCCCCCCCCCCCC(=O)OCCCCCCCCCCCCCC(C)C
Result: inactive

Request: What is the recorded call for this compound in the test? O=S(=O)(O)c1cc(S(=O)(=O)O)c2c(N=Nc3ccccc3)c(O)ccc2c1
Result: inactive

Request: What is the recorded call for this compound in the test? NC(=O)c1c(Cl)cccc1Cl
Result: inactive

Request: What is the recorded call for this compound in the test? [Cl][Dy]([Cl])[Cl]
Result: inactive

Request: What is the recorded call for this compound in the test? O=C(O)CS
Result: inactive

Request: What is the recorded call for this compound in the test? NS(=O)(=O)c1cc(C(=O)O)c(NCc2ccco2)cc1Cl
Result: inactive

Request: What is the recorded call for this compound in the test? C1COCO1
Result: inactive

Request: What is the recorded call for this compound in the test? CCOC(=O)COC(=O)c1ccccc1C(=O)OCC
Result: inactive

Request: What is the recorded call for this compound in the test? c1ccc(OCCOc2ccccc2)cc1
Result: inactive

Request: What is the recorded call for this compound in the test? C=C(C)C(=O)OCCOCCOC(=O)C(=C)C
Result: inactive

Request: What is the recorded call for this compound in the test? CC(C)(CO)CO
Result: inactive

Request: What is the recorded call for this compound in the test? CC(C)(C)c1ccc(S)cc1
Result: inactive

Request: What is the recorded call for this compound in the test? S=c1[nH][nH]c(=S)s1
Result: inactive

Request: What is the recorded call for this compound in the test? CN(C)CCC=C1c2ccccc2CCc2ccccc21
Result: active

Request: What is the recorded call for this compound in the test? COc1ccccc1O
Result: inactive

Request: What is the recorded call for this compound in the test? C=C1CC/C=C(\C)CC[C@@H]2[C@@H]1CC2(C)C
Result: inactive

Request: What is the recorded call for this compound in the test? OC[C@@H](O)[C@H](O)[C@@H](O)[C@@H](O)CO
Result: inactive

Request: What is the recorded call for this compound in the test? CCCCCCCC(=O)N(C)C
Result: inactive

Request: What is the recorded call for this compound in the test? C1CCCNCC1
Result: inactive

Request: What is the recorded call for this compound in the test? CCCO[Si](OCCC)(OCCC)OCCC
Result: inactive

Request: What is the recorded call for this compound in the test? CC1=CC[C@@H]2C[C@H]1C2(C)C
Result: inactive

Request: What is the recorded call for this compound in the test? C1=COCCC1
Result: inactive

Request: What is the recorded call for this compound in the test? CCCc1ccc(N)cc1
Result: inactive

Request: What is the recorded call for this compound in the test? CC1=CCC(C(C)C)=CC1
Result: inactive

Request: What is the recorded call for this compound in the test? COc1ccc(OC)cc1
Result: inactive

Request: What is the recorded call for this compound in the test? N#CCCCC(C#N)CCC#N (centres undefined)
Result: inactive

Request: What is the recorded call for this compound in the test? Cc1cc(O)c2c(c1)C(=O)c1cc(O)cc(O)c1C2=O
Result: active

Request: What is the recorded call for this compound in the test? CC(C)Cc1ccccc1
Result: inactive

Request: What is the recorded call for this compound in the test? CCC(=O)OC/C=C(\C)CCC=C(C)C
Result: inactive

Request: What is the recorded call for this compound in the test? CCOC(=O)CC(C)C
Result: inactive
